# assayMethodText: Comparative formulation tests, physical stability (Tables 32a-c, 33a-c)
# Assay type: physicochemical
# details: NB 144-15, ~0.1% Asc + ~0.1% NAC; LDAA TFA salt/CD formulation; Day 6, room temperature after two days at 2-8° C.
Where a name gives a salt, the structure may show the parent alone. Non-standard residues stand in square brackets, D forms with d. Residues, ends and D or L forms follow the SMILES beside them. Dopa = N[C@@H](Cc1ccc(O)c(O)c1)C(=O)O
measuredMetric: Physical stability (visual), Day 6

The examples below pair each entry with its known result.
# molecule, Physical stability (visual), Day 6
data = [
    ("N[C@@H](Cc1ccc(O)c(O)c1)C(=O)N[C@@H](Cc1c[nH]c2ccccc12)C(=O)O [LD-Trp TFA salt, Levodopa Tryptophan] (H-[Dopa]-Trp-OH)", "Stable"),
    ("N=C(N)NCCC[C@H](NC(=O)[C@@H](N)Cc1ccc(O)c(O)c1)C(=O)O [LD-Arg TFA salt, Levodopa Arginine TFA Salt]", "Stable"),
    ("NCCCC[C@H](NC(=O)[C@@H](N)Cc1ccc(O)c(O)c1)C(=O)O [LD-Lys TFA salt, Levodopa Lysine TFA Salt] (H-[Dopa]-Lys-OH)", "Precipitated"),
    ("N[C@@H](Cc1ccc(O)c(O)c1)C(=O)N[C@@H](Cc1ccc(O)cc1)C(=O)O [LD-Tyr TFA salt, Levodopa Tyrosine TFA Salt] (H-[Dopa]-Tyr-OH)", "Precipitated"),
    ("N[C@@H](CSC[C@@H](NC(=O)[C@@H](N)Cc1ccc(O)c(O)c1)C(=O)O)C(=O)O (single isomer, unassigned; peak 1) [LD-LA1 TFA salt, Levodopa Lanthionine Peak 1 TFA Salt]", "Stable"),
]

Pending molecule:
Ask | Given the molecule N[C@@H](Cc1ccc(O)c(O)c1)C(=O)N[C@@H](CC(=O)O)C(=O)O [LD-Asp TFA salt, Levodopa Aspartic Acid] (H-[Dopa]-Asp-OH) , what is its reported Physical stability (visual), Day 6?
Reply | Stable

* * *

Field: recovery at 60 min, 10 μM. Provide a value for each of the compounds that follow.
# System: P-gp
# assayMethodText: In-vitro absorption, Caco-2 A-B permeability
# Format: in vitro ADME, human
# details: human, Caco-2, pH 7.4, with verapamil 100 μM on both the A and B sides, Caco-2 A-B; in the presence of verapamil; read-out: Percent Recovery 2nd
Counter-ions that a name gives are not always drawn. Non-standard residues stand in square brackets, D forms with d. Residues, ends and D or L forms follow the SMILES beside them. Dopa = N[C@@H](Cc1ccc(O)c(O)c1)C(=O)O
Answer with a number only, understood to be in %.

Ask | Given the entry N[C@@H](Cc1ccc(O)c(O)c1)C(=O)N[C@@H](Cc1c[nH]c2ccccc12)C(=O)O [LD-Trp TFA salt, Levodopa Tryptophan] (H-[Dopa]-Trp-OH) , what recovery at 60 min, 10 μM was observed with P-gp?
Reply | 45

Ask | Try the compound N=C(N)NCCC[C@H](NC(=O)[C@@H](N)Cc1ccc(O)c(O)c1)C(=O)O [LD-Arg TFA salt, Levodopa Arginine TFA Salt]
Reply | 26

Ask | Try the compound N[C@@H](CSC[C@H](NC(=O)[C@@H](N)Cc1ccc(O)c(O)c1)C(=O)O)C(=O)O (single isomer, unassigned; peak 2) [LD-LA2 TFA salt, Levodopa Lanthionine Peak 2 TFA Salt]
Reply | 87

Ask | Try the compound NC(=O)CC[C@H](NC(=O)[C@@H](N)Cc1ccc(O)c(O)c1)C(=O)O [LD-Gln TFA salt, Levodopa Glutamine TFA Salt] (H-[Dopa]-Gln-OH)
Reply | 69

* * *

Field: % Protein Bound Mean. Provide a value for each of the molecules that follow.
# Test system: human plasma
# assayMethodText: Protein binding, solid phase extraction (SPE) method
# Type: in vitro ADME
# details: 1.0E−05M; SPE sample preparation
Counter-ions that a name gives are not always drawn. Non-standard residues stand in square brackets, D forms with d. Residues, ends and D or L forms follow the SMILES beside them. Dopa = N[C@@H](Cc1ccc(O)c(O)c1)C(=O)O
Answer with a number only, understood to be in %.

Ask | Given the entry NCCCC[C@H](NC(=O)[C@@H](N)Cc1ccc(O)c(O)c1)C(=O)O [LD-Lys TFA salt, Levodopa Lysine TFA Salt] (H-[Dopa]-Lys-OH) , what % Protein Bound Mean was observed with human plasma?
Reply | 10

Ask | Try the molecule N[C@@H](Cc1ccc(O)c(O)c1)C(=O)O [LD (control), L-3,4-dihydroxyphenylalanine, reference compound]
Reply | 25

Ask | Try the molecule N[C@@H](Cc1ccc(O)c(O)c1)C(=O)N[C@@H](CCC(=O)O)C(=O)O [LD-Glu TFA salt, Levodopa Glutamic Acid TFA Salt] (H-[Dopa]-Glu-OH)
Reply | 43

Ask | Try the molecule N[C@@H](Cc1ccc(O)c(O)c1)C(=O)N[C@@H](CC(=O)O)C(=O)O [LD-Asp TFA salt, Levodopa Aspartic Acid] (H-[Dopa]-Asp-OH)
Reply | 41

Ask | Try the molecule N[C@@H](Cc1ccc(O)c(O)c1)C(=O)N[C@@H](Cc1ccc(O)cc1)C(=O)O [LD-Tyr TFA salt, Levodopa Tyrosine TFA Salt] (H-[Dopa]-Tyr-OH)
Reply | 22

Ask | Try the molecule N[C@@H](CSC[C@H](NC(=O)[C@@H](N)Cc1ccc(O)c(O)c1)C(=O)O)C(=O)O (single isomer, unassigned; peak 2) [LD-LA2 TFA salt, Levodopa Lanthionine Peak 2 TFA Salt]
Reply | 18.7

Ask | Try the molecule N=C(N)NCCC[C@H](NC(=O)[C@@H](N)Cc1ccc(O)c(O)c1)C(=O)O [LD-Arg TFA salt, Levodopa Arginine TFA Salt]
Reply | 91

* * *

# assayMethodText: Protein binding, equilibrium dialysis method
# Type: in vitro ADME, human
# details: human, human plasma, pH 7.4, 1.0E-05M; read-out: % Recovery Mean
Where a name gives a salt, the structure may show the parent alone. Non-standard residues stand in square brackets, D forms with d. Residues, ends and D or L forms follow the SMILES beside them. Dopa = N[C@@H](Cc1ccc(O)c(O)c1)C(=O)O
measuredMetric: recovery at 4 h, 10 μM (%)
Answer with a number only, understood to be in %.

Ask | Given the molecule NC(=O)CC[C@H](NC(=O)[C@@H](N)Cc1ccc(O)c(O)c1)C(=O)O [LD-Gln TFA salt, Levodopa Glutamine TFA Salt] (H-[Dopa]-Gln-OH) , what is its reported recovery at 4 h, 10 μM?
Reply | 78

Ask | Try the molecule N[C@@H](Cc1ccc(O)c(O)c1)C(=O)N[C@@H](Cc1c[nH]c2ccccc12)C(=O)O [LD-Trp TFA salt, Levodopa Tryptophan] (H-[Dopa]-Trp-OH)
Reply | 71

Ask | Try the molecule N[C@@H](CSC[C@@H](NC(=O)[C@@H](N)Cc1ccc(O)c(O)c1)C(=O)O)C(=O)O (single isomer, unassigned; peak 1) [LD-LA1 TFA salt, Levodopa Lanthionine Peak 1 TFA Salt]
Reply | 73

Ask | Try the molecule NCCCC[C@H](NC(=O)[C@@H](N)Cc1ccc(O)c(O)c1)C(=O)O [LD-Lys TFA salt, Levodopa Lysine TFA Salt] (H-[Dopa]-Lys-OH)
Reply | 16

Ask | Try the molecule N[C@@H](Cc1ccc(O)c(O)c1)C(=O)N[C@@H](CC(=O)O)C(=O)O [LD-Asp TFA salt, Levodopa Aspartic Acid] (H-[Dopa]-Asp-OH)
Reply | 107

Ask | Try the molecule N=C(N)NCCC[C@H](NC(=O)[C@@H](N)Cc1ccc(O)c(O)c1)C(=O)O [LD-Arg TFA salt, Levodopa Arginine TFA Salt]
Reply | 6

* * *

# Test system: human plasma
# assayMethodText: Protein binding, solid phase extraction (SPE) method
# Format: in vitro ADME
# details: 1.0E−05M; SPE sample preparation
Structures can show the parent of a compound that is named as a salt. Non-standard residues stand in square brackets, D forms with d. Residues, ends and D or L forms follow the SMILES beside them. Dopa = N[C@@H](Cc1ccc(O)c(O)c1)C(=O)O
The threshold is 40%. Values of % Protein Bound 1st beneath it are tagged T; values meeting or exceeding it are tagged F.

Ask | Strictly below 40%: is that where % Protein Bound 1st of N[C@@H](Cc1ccc(O)c(O)c1)C(=O)O [LD (control), L-3,4-dihydroxyphenylalanine, reference compound] sits?
Reply | T

Ask | Try the molecule N[C@@H](CSC[C@H](NC(=O)[C@@H](N)Cc1ccc(O)c(O)c1)C(=O)O)C(=O)O (single isomer, unassigned; peak 2) [LD-LA2 TFA salt, Levodopa Lanthionine Peak 2 TFA Salt]
Reply | T

Ask | Try the molecule N[C@@H](Cc1ccc(O)c(O)c1)C(=O)N[C@@H](CC(=O)O)C(=O)O [LD-Asp TFA salt, Levodopa Aspartic Acid] (H-[Dopa]-Asp-OH)
Reply | F

Ask | Try the molecule NCCCC[C@H](NC(=O)[C@@H](N)Cc1ccc(O)c(O)c1)C(=O)O [LD-Lys TFA salt, Levodopa Lysine TFA Salt] (H-[Dopa]-Lys-OH)
Reply | T

Ask | Try the molecule N=C(N)NCCC[C@H](NC(=O)[C@@H](N)Cc1ccc(O)c(O)c1)C(=O)O [LD-Arg TFA salt, Levodopa Arginine TFA Salt]
Reply | F

Ask | Try the molecule N[C@@H](Cc1ccc(O)c(O)c1)C(=O)N[C@@H](Cc1ccc(O)cc1)C(=O)O [LD-Tyr TFA salt, Levodopa Tyrosine TFA Salt] (H-[Dopa]-Tyr-OH)
Reply | T

Ask | Try the molecule N[C@@H](Cc1ccc(O)c(O)c1)C(=O)N[C@@H](CCC(=O)O)C(=O)O [LD-Glu TFA salt, Levodopa Glutamic Acid TFA Salt] (H-[Dopa]-Glu-OH)
Reply | T

Where do the numbers come from? From patent US20220362386A1.
